- Test system: S. parasitica CBS 540.67
- assay-protocol: Broth macrodilution susceptibility testing (zoospores and cysts)
- Type: cell-based, Saprolegnia parasitica
- test-conditions: Saprolegnia parasitica, CBS540; S. parasitica CBS 540.67; 24 h, 15-20° C.; geometric mean of three tests; read-out: MIC, Macrodilution
Can you tell me MIC for the items I'm about to list?
Numeric only. Scale: µg/mL

Prompt: Report MIC for C=CCOC(Cn1ccnc1)c1ccc(Cl)cc1Cl (centres unmarked) [Enilconazole] please.
Response: 1

Prompt: Report MIC for O=[N+]([O-])C(Br)(CO)CO [Pyceze ®] please.
Response: 100

Prompt: Report MIC for OO [Hydrogen peroxide] please.
Response: 8

Prompt: Report MIC for C[C@@H]1CC[C@@]2(OC1)O[C@H]1[C@@H](O)[C@H]3[C@@H]4CC[C@H]5C[C@@H](O[C@@H]6O[C@H](CO)[C@H](O[C@@H]7O[C@H](CO)[C@@H](O)[C@H](O[C@@H]8OC[C@@H](O)[C@H](O)[C@H]8O)[C@H]7O[C@@H]7O[C@H](CO)[C@H](O)[C@H](O[C@@H]8O[C@H](CO)[C@@H](O)[C@H](O)[C@H]8O)[C@H]7O)[C@H](O)[C@H]6O)[C@H](O)C[C@]5(C)[C@H]4CC[C@]3(C)[C@H]1[C@@H]2C [Digitonin] please.
Response: 2.5

Prompt: Report MIC for CCCCCCCCCCCCOS(=O)(=O)[O-].[Na+] [SDS, Sodium dodecylsulfate] please.
Response: 250

###

- Test system: S. parasitica CBS 540.67
- assay-protocol: Agar-dilution susceptibility testing (filamentous hyphae)
- Assay type: cell-based, Saprolegnia parasitica
- test-conditions: Saprolegnia parasitica, CBS540; S. parasitica CBS 540.67; 24 h, 15-20° C.; geometric mean of three tests; read-out: MIC, Agar-dilution
quantity-name: MIC (µg/mL)
Numeric only. Scale: µg/mL

Prompt: Report MIC for O=[N+]([O-])C(Br)(CO)CO please.
Response: 200

Prompt: Report MIC for C=CCOC(Cn1ccnc1)c1ccc(Cl)cc1Cl (stereo not shown) please.
Response: 5

Prompt: Report MIC for CCCCCCCCCCCCOS(=O)(=O)[O-].[Na+] [SDS, Sodium dodecylsulfate] please.
Response: 500

Prompt: Report MIC for C[C@@H]1CC[C@@]2(OC1)O[C@H]1[C@@H](O)[C@H]3[C@@H]4CC[C@H]5C[C@@H](O[C@@H]6O[C@H](CO)[C@H](O[C@@H]7O[C@H](CO)[C@@H](O)[C@H](O[C@@H]8OC[C@@H](O)[C@H](O)[C@H]8O)[C@H]7O[C@@H]7O[C@H](CO)[C@H](O)[C@H](O[C@@H]8O[C@H](CO)[C@@H](O)[C@H](O)[C@H]8O)[C@H]7O)[C@H](O)[C@H]6O)[C@H](O)C[C@]5(C)[C@H]4CC[C@]3(C)[C@H]1[C@@H]2C please.
Response: 20

###

- System: S. parasitica
- assay-protocol: In vitro susceptibility of S. parasitica in Table 4
- Type: cell-based, Saprolegnia parasitica
- test-conditions: Table 4 summary
quantity-name: Activity in vitro (MIC), grade

OO [Hydrogen peroxide] :: High
O=C([O-])[O-].O=C([O-])[O-].OO.OO.OO.[Na+].[Na+].[Na+].[Na+] [Sodium percarbonate] :: High
C[C@@H]1[C@H](O)[C@@H](C)/C=C/C=C/C=C/C=C/C=C/C=C/C=C/[C@H](O[C@@H]2O[C@H](C)[C@@H](O)[C@H](N)[C@@H]2O)C[C@@H]2O[C@](O)(C[C@@H](O)C[C@@H](O)[C@H](O)CC[C@@H](O)C[C@@H](O)CC(=O)O[C@H]1C)C[C@H](O)[C@H]2C(=O)O :: High
